# experiment: clinical
# condition summary: human, in vivo, po, 20 mg, t1/2 (h) (mean, SD)
endpoint label: half-life (h)
Note: unit h is implicit; provide only the numeric part.

I would be grateful if you could share the reported half-life for Cc1c(NS(=O)(=O)c2c(Cl)cc(-c3ccnc(N4CCNCC4)c3)cc2Cl)c(CC(C)C)nn1C .
6.7

----------
# experiment: clinical
# condition summary: human, in vivo, po, 70 mg, Cmax (ng/ml) (mean, SD)
endpoint label: Cmax (ng/mL)
Reply with just the number (in ng/mL).

So what does the record say about Cmax for Cc1c(NS(=O)(=O)c2c(Cl)cc(-c3ccnc(N4CCNCC4)c3)cc2Cl)c(CC(C)C)nn1C ?
665

----------
# experiment: clinical
# condition summary: human, in vivo, po, 210 mg, Tmax (h) (median, range)
endpoint label: Tmax

Quick check: Tmax of Cc1c(NS(=O)(=O)c2c(Cl)cc(-c3ccnc(N4CCNCC4)c3)cc2Cl)c(CC(C)C)nn1C [zelenirstat] ?
3 h

----------
# experiment: clinical
# condition summary: human, in vivo, po, 140 mg, Tmax (h) (median, range)
endpoint label: Tmax (h)
Give the quantity in h, number only.

Please look up its Tmax: Cc1c(NS(=O)(=O)c2c(Cl)cc(-c3ccnc(N4CCNCC4)c3)cc2Cl)c(CC(C)C)nn1C [zelenirstat]
1

----------
# experiment: clinical
# condition summary: human, in vivo, po, 70 mg, Tmax (h) (median, range)
endpoint label: Tmax (h)
Write down the numeric answer in h and omit the unit.

Form field: reported Tmax of Cc1c(NS(=O)(=O)c2c(Cl)cc(-c3ccnc(N4CCNCC4)c3)cc2Cl)c(CC(C)C)nn1C
3.9

FYI, the data here is from paper PMC11327210.
